Test system: Plasmodium falciparum
measurement notes: Growth of Plasmodium falciparum in red blood cells (SYBR Green, 72 hours)
Format: cell-based
measurement parameters: Erythrocyte, read-out: EC50s against P. falciparum strain V1S
Protocol: Continuous in vitro cultures of Plasmodium falciparum: were maintained in human red blood cells (RBC) diluted to a hematocrit of 5% in RPMI 1640 medium with HEPES and Hypoxanthine and completed with 0.5% Albumax II (Invitrogen), 0.25% sodium bicarbonate, and 0.1 mg/ml gentamicin. Parasites were incubated at 37° C. in a gas mixture of 5% oxygen, 5% carbon dioxide, and 90% nitrogen. Parasite sensitivity to novel compounds were determined using a SYBR Green (Invitrogen S1046) drug assay protocol. […]
reported metric: pEC50
# pEC50: negative log10 of molar concentration; output just the value

Which measured pEC50 belongs to CC(C)(C)NC(=O)C[C@H](NC(=O)CCc1ccccc1)C(=O)NCCNC(=O)c1cccc(-c2ccccc2)c1 , tested on Plasmodium falciparum? 8.77

---

target or test system: c-20S β5c (Homo sapiens, UniProt P28074)
reported metric: Ki (µM)
Use µM as the unit, but write only the number.

Given the molecule CC(C)(C)NC(=O)C[C@H](NC(=O)CCc1ccccc1)C(=O)NCCNC(=O)c1cccc(-c2ccccc2)c1 , what is its reported Ki? 0.55

---

Each entry below carries its recorded IC50.
target or test system: human constitutive proteasome β5c (Homo sapiens, UniProt P28074)
Construct: purchased Boston Biochem Inc
measurement notes: IC50 against chymotryptic β5c activity of human constitutive proteasome (96-well plate, Suc-LLVY-AMC)
Type: biochemical
measurement parameters: β5c; substrate Suc-LLVY-AMC; read-out: IC50 Hu c-20S (Suc-LLVY-AMC)
Dear colleague, please return just the value in µM, with no unit written.

Worked examples follow.
| compound | reported metric | value measured |
| --- | --- | --- |
| CC(C)(C)NC(=O)C[C@H](NC(=O)CCc1ccccc1)C(=O)NCCCNC(=O)c1cccc(-c2ccccc2)c1 | IC50 | 3.46 |
| Cc1ccc(S(=O)(=O)N[C@@H](CC(=O)NC(C)(C)C)C(=O)NCCNC(=O)c2cccc(-c3cc[nH]n3)c2)cc1 | IC50 | 1.29 |
| CC(C)(C)NC(=O)C[C@H](N)C(=O)NCCNC(=O)c1cc(-c2ccccc2F)ccc1F | IC50 | 3.09 |
| CC(C)(C)NC(=O)C[C@H](NC(=O)CCc1ccc(F)cc1)C(=O)NCCNC(=O)c1ccc(F)c2ccccc12 | IC50 | 2.24 |
| Cc1ccc(S(=O)(=O)N[C@@H](CC(=O)NC(C)(C)C)C(=O)NCCNC(=O)c2cc(-c3ccccc3)ccn2)cc1 | IC50 | 0.51 |

Fill blank: measured IC50 of the compound Cc1cc(C(=O)N[C@@H](CC(=O)NC(C)(C)C)C(=O)NCCNC(=O)c2cc(-c3ccccc3)ccn2)no1 is ____. 33.7

Now give it for CC(C)(C)NC(=O)C[C@H](NC(=O)CCc1ccc(F)cc1)C(=O)NCCNC(=O)c1cccc2cccnc12 too. 22.7

Here is the next compound: Cc1cc(C(=O)N[C@@H](CC(=O)NC(C)(C)C)C(=O)NCCNC(=O)c2cc(-c3cccc(F)c3)ccc2F)no1 11.8

O=C(CCc1ccc(F)cc1)N[C@@H](CC(=O)NC1(C(F)(F)F)CC1)C(=O)NCCNC(=O)c1cc(-c2ccccc2F)ccc1F ? 0.114

---

target or test system: human immunoproteasome β5i (Homo sapiens, UniProt P28062)
Construct: purchased Boston Biochem Inc
measurement notes: IC50 against chymotryptic β5i activity of human immunoproteasome (96-well plate, Ac-ANW-AMC)
Assay type: biochemical
measurement parameters: β5i; substrate Ac-ANW-AMC; read-out: IC50 Hu i-20S (Ac-ANW-AMC)
pIC50: −log10 of the molar value.
// label = satisfied if pIC50 is not less than 7, otherwise not satisfied

Example entries begin here.
| molecule | label |
| --- | --- |
| CC(C)(C)NC(=O)C[C@H](NC(=O)CCc1ccc(F)cc1)C(=O)NCCNC(=O)c1cccc2cccnc12 [PKS21258] | not satisfied |
| CC(C)(C)NC(=O)C[C@H](NC(=O)CCc1ccc(F)cc1)C(=O)NCCNC(=O)c1ccccc1F [PKS21255] | not satisfied |
| CC(C)(C)NC(=O)C[C@H](NC(=O)CCc1ccccc1)C(=O)NCCNC(=O)c1cccc(-c2ccccc2)c1 [PKS21004] | satisfied |

# check: pIC50 of CC(C)(C)NC(=O)C[C@H](NC(=O)CCc1ccccc1)C(=O)NCCNC(=O)c1ccc(-c2ccccc2)cc1 [PKS21003] is greater than or equal to 7 not satisfied

---

Parameter: EC50. Scope: all listed entries.
Tested on: Plasmodium falciparum
measurement notes: Growth of Plasmodium falciparum in red blood cells (SYBR Green, 72 hours)
Type: cell-based
measurement parameters: Erythrocyte, P.f. 3D7, growth in red blood cells, read-out: EC50 (nM) (P.f.)
The reply should contain only the number, in nM.

| molecule | reported metric | quantity unit | value measured |
| --- | --- | --- | --- |
| CC(C)(C)NC(=O)C[C@H](NC(=O)CCc1ccccc1)C(=O)NCCNC(=O)c1cccc(-c2ccc(F)cc2)c1 [PKS21026] | EC50 | nM | 100 |

Pending molecule:
Find the recorded EC50 belonging to CC(C)(C)NC(=O)C[C@H](NC(=O)CCc1ccccc1)C(=O)NCCNC(=O)c1cccc2ccccc12 [PKS3080] and report it. 23

---

target or test system: human constitutive proteasome β5c (Homo sapiens, UniProt P28074)
Construct: purchased Boston Biochem Inc
measurement notes: IC50 against chymotryptic β5c activity of human constitutive proteasome (96-well plate, Suc-LLVY-AMC)
Format: biochemical
reported metric: IC50 (nM)
Dear colleague, please return just the value in nM, with no unit written.

Param readout= IC50; system= human constitutive proteasome β5c (Homo sapiens, UniProt P28074); entry= Cc1ccc(S(=O)(=O)N[C@@H](CC(=O)NC(C)(C)C)C(=O)NCCNC(=O)c2cc(-c3ccccc3F)ccc2F)cc1 ; returns value. 106

---

Tested on: Plasmodium falciparum
measurement notes: Growth of Plasmodium falciparum in red blood cells (SYBR Green, 72 hours)
Format: cell-based
measurement parameters: Erythrocyte, P.f. 3D7, growth in red blood cells, read-out: EC50 (nM) (P.f.)
Listing of entries alongside the reported EC50.
Provide only the numeric value, understood in nM.

Example entries begin here.
| structure | target or test system | quantity unit | value measured |
| --- | --- | --- | --- |
| Cc1cc(C(=O)N[C@@H](CC(=O)NC(C)(C)C)C(=O)NCCNC(=O)c2cc(-c3ccccc3)ccn2)no1 | Plasmodium falciparum | nM | 11 |
| Cc1ccc(S(=O)(=O)N[C@@H](CC(=O)NC(C)(C)C)C(=O)NCCNC(=O)c2ccccc2F)cc1 | Plasmodium falciparum | nM | 11 |

Kindly consider the entry below.
Requested read-out: EC50. Entry: Cc1ccc(S(=O)(=O)N[C@@H](CC(=O)NC(C)(C)C)C(=O)NCCNC(=O)c2cc(-c3ccccc3)ccn2)cc1 1

---

target or test system: human immunoproteasome β5i (Homo sapiens, UniProt P28062)
Construct: purchased Boston Biochem Inc
measurement notes: IC50 against chymotryptic β5i activity of human immunoproteasome (96-well plate, Ac-ANW-AMC)
Assay type: biochemical
measurement parameters: b406; read-out: IC50 against β5i
reported metric: pIC50
pIC50 here is simply -log10 of the concentration when that concentration is written in mol/L.

Which value of pIC50 has been reported for Cc1ccc(S(=O)(=O)N[C@@H](CC(=O)NC(C)(C)C)C(=O)NCCNC(=O)c2cc(-c3ccccc3F)ccc2F)cc1 in the records? 8.62

---

System: Plasmodium falciparum
measurement notes: Growth of Plasmodium falciparum in red blood cells (SYBR Green, 72 hours)
Type: cell-based
measurement parameters: Erythrocyte, P.f. 3D7, growth in red blood cells, read-out: EC50 (nM) (P.f.)
reported metric: EC50 (nM)
The answer is to be given in nM; state only the numeric part.

Answered examples (2):
| molecule | target or test system | quantity unit | EC50 |
| --- | --- | --- | --- |
| CC(C)(C)NC(=O)C[C@H](NC(=O)CCc1ccccc1)C(=O)NCCNC(=O)c1ccc2ccccc2c1 [PKS21025] | Plasmodium falciparum | nM | 320 |
| Cc1ccc(S(=O)(=O)N[C@@H](CC(=O)NC(C)(C)C)C(=O)NCCNC(=O)c2ccccc2O)cc1 [PKS21292] | Plasmodium falciparum | nM | 2.9 |

I'd like to know its EC50. The molecule in question is CC(C)(C)NC(=O)C[C@H](NC(=O)CCc1ccccc1)C(=O)NCCCNC(=O)c1cccc(-c2ccccc2)c1 [PKS21019] 30

---

Tested on: P. berghei
measurement notes: Killing of P. berghei sporozoite stage in HepG2 cells
Type: cell-based
measurement parameters: Plasmodium berghei; sporozoites pre-treated 30 minutes on ice, added to HepG2, media replaced after 4 hours; read-out: EC50 killing of P. berghei, sporozoites pre-treated (P/T)
reported metric: pEC50
Schema: pEC50 number; meaning minus log10 of the concentration expressed in molar units.

Form field: reported pEC50 of CC(C)(C)NC(=O)C[C@H](NC(=O)CCc1ccccc1)C(=O)NCCNC(=O)c1cccc(-c2ccccc2)c1 [PKS21004] 6.80

Origin of measurements: patent US11629141B2
